# credit: patent US20140357844A1

Target: T1, monovalent human Trop2-ECD antigen (human, UniProt P09758 27-274)
T1 construct: also called human Trop2-ECD (Extracellular Domain)
T1 sequence: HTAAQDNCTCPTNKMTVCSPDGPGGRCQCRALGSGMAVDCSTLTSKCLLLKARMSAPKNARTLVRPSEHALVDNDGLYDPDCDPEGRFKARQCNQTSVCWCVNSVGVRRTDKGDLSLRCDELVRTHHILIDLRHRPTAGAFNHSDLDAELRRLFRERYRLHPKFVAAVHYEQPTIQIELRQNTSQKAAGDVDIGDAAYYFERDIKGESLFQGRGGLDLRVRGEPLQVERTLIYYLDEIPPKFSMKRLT
Assay: SPR (ProteOn XPR36), amine-coupled Fab, monovalent human Trop2-ECD as analyte, 25 C;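 further: GLC sensor chip, 3 min association then 15 min buffer dissociation, kinetics fit with a 1:1 Langmuir model, buffer of 10 mM sodium phosphate with 150 mM NaCl and 0.05% Tween-20 at pH 7.4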
valueKind: Kd

[ask] Consider the binder h7E6_SVG20 Fab (Fab, V domains shown, also called DK (h7E6_SVG20)) VH: QVQLQESGPGLVKPSETLSLTCTVSGGSISSYGVHWIRQPPGKGLEWIGVIWTSGVTDYNSALMGRVTISVDTSKNQFSLKLSSVTAADTAVYYCARDKDYDRYTMDYWGQGTLVTVSS VL: DIVMTQSPDSLAVSLGERATINCRASKSVSTSGYSYMHWYQQKPGQPPKLLIYLASNLESGVPDRFSGSGSGTDFTLTISSLQAEDVAVYYCQHSRELPYTFGQGTKLEIK and give its measured Kd.
[reply] > 75 nM

[ask] Consider the binder h7E6_SVG30 Fab (Fab, V domains shown, also called DE (h7E6_SVG30)) VH: QVQLQESGPGLVKPSETLSLTCTVSGGSISSYGVHWIRQPPGKGLEWIGVIWTSGVTDYNSALMGRVTISVDTSKNQFSLKLSSVTAADTAVYYCARDEDYDRYTMDYWGQGTLVTVSS VL: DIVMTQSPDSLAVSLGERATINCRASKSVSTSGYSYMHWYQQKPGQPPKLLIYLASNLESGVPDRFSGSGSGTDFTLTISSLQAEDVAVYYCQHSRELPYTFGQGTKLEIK and give its measured Kd.
[reply] > 75 nM
